target: Protein mono-ADP-ribosyltransferase PARP10 (Homo sapiens); experiment: Inhibition of C-terminal His-tagged human ARTD10 (809 to 1017 residues) expressed in Escherichia coli Rosetta2 (DE3) using SRPK2 as substrate after 13 hrs in presence of NAD+; settings: read-out: pIC50 (converted)
Measured IC50 of individual entries
QUANTITY NAME: IC50 (nM)

* Cc1ccc(COc2ccc(C(N)=O)cc2)cc1 | 9330
* NC(=O)c1ccc(OCc2ccccc2)cc1 | 1350
* COc1ccc(C(N)=O)cc1 | 2750
* NC(=O)c1ccc(Oc2ccc(C(=O)O)cc2)cc1 | 186
* NC(=O)c1ccc(OCc2ccccc2Br)cc1 | 3800
* NC(=O)c1ccc(Oc2ccc(O)cc2)cc1 | 1740
* NC(=O)c1ccc(Oc2ccc(N)cc2)cc1 | 1260
* NC(=O)c1ccc(OC(=O)c2ccccc2)cc1 | 7240
* CC(C)Oc1ccc(C(N)=O)cc1 | 1260
* NC(=O)c1ccc(Oc2ccccc2F)cc1 | 1700
* NC(=O)c1ccc(OCc2cccc3ccccc23)cc1 | 1450
* NC(=O)c1ccc(OCc2ccccn2)cc1 | 1350
* NC(=O)c1ccc(OCc2ccc(F)cc2)cc1 | 7940
* Cc1cc(C)cc(COc2ccc(C(N)=O)cc2)c1 | 4570
* COc1ccc(Oc2ccc(C(N)=O)cc2)cc1 | 1380
* CCOc1ccc(C(N)=O)cc1 | 3390
* NC(=O)c1ccc(Oc2ccccc2)cc1 | 1150
* NC(=O)c1ccc(OCCOc2ccccc2)cc1 | 1950
* NC(=O)c1ccc(OC2CCC2)cc1 | 724
* NC(=O)c1ccc(OCc2ccccc2F)cc1 | 234
* NC(=O)c1ccc(OCc2cccc(F)c2)cc1 | 3310

* * *

Target: Protein mono-ADP-ribosyltransferase PARP10 (Homo sapiens, UniProt Q53GL7)
Sequence (Q53GL7 whole entry): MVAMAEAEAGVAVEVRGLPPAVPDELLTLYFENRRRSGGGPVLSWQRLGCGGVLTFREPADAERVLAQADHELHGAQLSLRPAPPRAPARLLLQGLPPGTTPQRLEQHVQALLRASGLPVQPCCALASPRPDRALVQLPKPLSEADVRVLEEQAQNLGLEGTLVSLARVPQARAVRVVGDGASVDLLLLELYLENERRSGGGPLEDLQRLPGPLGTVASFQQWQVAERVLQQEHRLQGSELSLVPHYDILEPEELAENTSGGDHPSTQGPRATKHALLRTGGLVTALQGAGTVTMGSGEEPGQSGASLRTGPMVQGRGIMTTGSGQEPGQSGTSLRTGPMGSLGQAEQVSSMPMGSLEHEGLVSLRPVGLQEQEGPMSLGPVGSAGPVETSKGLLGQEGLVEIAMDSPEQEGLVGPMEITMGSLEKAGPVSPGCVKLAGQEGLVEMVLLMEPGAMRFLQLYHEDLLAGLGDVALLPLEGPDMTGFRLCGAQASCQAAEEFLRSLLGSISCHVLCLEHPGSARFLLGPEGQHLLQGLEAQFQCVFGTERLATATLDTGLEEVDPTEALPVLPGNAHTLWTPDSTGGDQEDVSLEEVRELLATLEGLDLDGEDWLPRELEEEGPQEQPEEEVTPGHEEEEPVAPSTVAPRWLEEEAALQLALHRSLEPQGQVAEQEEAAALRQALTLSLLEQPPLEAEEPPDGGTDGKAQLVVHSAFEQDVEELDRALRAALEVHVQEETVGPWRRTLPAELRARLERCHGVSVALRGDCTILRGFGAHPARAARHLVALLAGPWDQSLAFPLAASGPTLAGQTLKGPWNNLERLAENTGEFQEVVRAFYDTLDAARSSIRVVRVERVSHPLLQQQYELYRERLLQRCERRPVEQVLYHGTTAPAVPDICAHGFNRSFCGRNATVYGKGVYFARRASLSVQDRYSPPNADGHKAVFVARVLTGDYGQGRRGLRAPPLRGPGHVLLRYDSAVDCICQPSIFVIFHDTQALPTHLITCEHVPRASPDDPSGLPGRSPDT
Assay: Inhibition of C-terminal His-tagged human ARTD10 (809 to 1017 residues) expressed in Escherichia coli Rosetta2 (DE3) using SRPK2 as substrate after 13 hrs in presence of NAD+
Conditions: read-out: IC50
Measured IC50 of individual entries
QUANTITY NAME: IC50

• CCOc1ccc(C(N)=O)cc1 = 3.5 µM
• NC(=O)c1ccc(OC(=O)c2ccccc2)cc1 = 7.3 µM
• NC(=O)c1ccc(OCCOc2ccccc2)cc1 = 1.9 µM
• Cc1ccc(COc2ccc(C(N)=O)cc2)cc1 = 9.3 µM
• NC(=O)c1ccc(Oc2ccc(O)cc2)cc1 = 1.8 µM
• Cc1cc(C)cc(COc2ccc(C(N)=O)cc2)c1 = 4.5 µM
• COc1ccc(C(N)=O)cc1 = 2.8 µM

* * *

Measured ΔTm of individual entries
target: Protein mono-ADP-ribosyltransferase PARP9 (Homo sapiens) (UniProt Q8IXQ6); note: test concentration or dose not given here
QUANTITY NAME: ΔTm (°C)

• NC(=O)c1ccc(Oc2ccc(C(=O)O)cc2)cc1 = 1.2
• NC(=O)c1ccc(OCc2ccccc2F)cc1 = 0.76
• COc1ccc(C(N)=O)cc1 = 0.15
• NC(=O)c1ccc(Oc2ccc(C=O)cc2)cc1 = 0.04
• NC(=O)c1ccc(Oc2ccc(C(N)=O)cc2)cc1 = 0.72

* * *

Biological target: Protein mono-ADP-ribosyltransferase PARP15 (Homo sapiens)
Sequence (Q460N3 whole entry): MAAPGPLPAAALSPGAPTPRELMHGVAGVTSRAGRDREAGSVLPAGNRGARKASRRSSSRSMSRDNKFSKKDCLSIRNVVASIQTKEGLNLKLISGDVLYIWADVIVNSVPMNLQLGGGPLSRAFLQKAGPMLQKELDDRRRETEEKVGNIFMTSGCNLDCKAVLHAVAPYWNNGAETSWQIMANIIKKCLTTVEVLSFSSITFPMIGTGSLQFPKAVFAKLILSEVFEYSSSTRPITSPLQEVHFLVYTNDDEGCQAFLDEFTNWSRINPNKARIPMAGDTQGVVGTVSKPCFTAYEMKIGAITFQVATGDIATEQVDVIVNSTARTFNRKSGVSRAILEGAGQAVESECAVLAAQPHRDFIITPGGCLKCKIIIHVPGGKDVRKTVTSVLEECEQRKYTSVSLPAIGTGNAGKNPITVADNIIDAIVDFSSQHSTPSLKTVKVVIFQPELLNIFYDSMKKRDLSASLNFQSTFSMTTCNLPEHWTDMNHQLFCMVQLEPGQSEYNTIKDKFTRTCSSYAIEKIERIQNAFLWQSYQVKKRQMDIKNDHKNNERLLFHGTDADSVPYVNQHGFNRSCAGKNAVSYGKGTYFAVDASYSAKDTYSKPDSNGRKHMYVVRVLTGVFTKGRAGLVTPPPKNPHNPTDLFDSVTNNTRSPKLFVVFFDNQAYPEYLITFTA
QUANTITY NAME: IC50 (µM)

• NC(=O)c1ccc(OCc2ccccc2F)cc1 = 3.3
• NC(=O)c1ccc(Oc2ccc(C(=O)O)cc2)cc1 = 2.6

* * *

Measured ΔTm of individual entries
target: Zinc finger CCCH-type antiviral protein 1 (Homo sapiens); note: test concentration or dose not given here
QUANTITY NAME: ΔTm (°C)

• NC(=O)c1ccc(OCc2ccccc2F)cc1 = 0.37
• COc1ccc(C(N)=O)cc1 = 0.44
• NC(=O)c1ccc(Oc2ccc(C=O)cc2)cc1 = 0.49
• NC(=O)c1ccc(Oc2ccc(C(N)=O)cc2)cc1 = 0.4
• NC(=O)c1ccc(Oc2ccc(C(=O)O)cc2)cc1 = 0.72

* * *

Measured pIC50 of individual entries
Biological target: UniProt:Q53GL7
Sequence (Q53GL7 whole entry): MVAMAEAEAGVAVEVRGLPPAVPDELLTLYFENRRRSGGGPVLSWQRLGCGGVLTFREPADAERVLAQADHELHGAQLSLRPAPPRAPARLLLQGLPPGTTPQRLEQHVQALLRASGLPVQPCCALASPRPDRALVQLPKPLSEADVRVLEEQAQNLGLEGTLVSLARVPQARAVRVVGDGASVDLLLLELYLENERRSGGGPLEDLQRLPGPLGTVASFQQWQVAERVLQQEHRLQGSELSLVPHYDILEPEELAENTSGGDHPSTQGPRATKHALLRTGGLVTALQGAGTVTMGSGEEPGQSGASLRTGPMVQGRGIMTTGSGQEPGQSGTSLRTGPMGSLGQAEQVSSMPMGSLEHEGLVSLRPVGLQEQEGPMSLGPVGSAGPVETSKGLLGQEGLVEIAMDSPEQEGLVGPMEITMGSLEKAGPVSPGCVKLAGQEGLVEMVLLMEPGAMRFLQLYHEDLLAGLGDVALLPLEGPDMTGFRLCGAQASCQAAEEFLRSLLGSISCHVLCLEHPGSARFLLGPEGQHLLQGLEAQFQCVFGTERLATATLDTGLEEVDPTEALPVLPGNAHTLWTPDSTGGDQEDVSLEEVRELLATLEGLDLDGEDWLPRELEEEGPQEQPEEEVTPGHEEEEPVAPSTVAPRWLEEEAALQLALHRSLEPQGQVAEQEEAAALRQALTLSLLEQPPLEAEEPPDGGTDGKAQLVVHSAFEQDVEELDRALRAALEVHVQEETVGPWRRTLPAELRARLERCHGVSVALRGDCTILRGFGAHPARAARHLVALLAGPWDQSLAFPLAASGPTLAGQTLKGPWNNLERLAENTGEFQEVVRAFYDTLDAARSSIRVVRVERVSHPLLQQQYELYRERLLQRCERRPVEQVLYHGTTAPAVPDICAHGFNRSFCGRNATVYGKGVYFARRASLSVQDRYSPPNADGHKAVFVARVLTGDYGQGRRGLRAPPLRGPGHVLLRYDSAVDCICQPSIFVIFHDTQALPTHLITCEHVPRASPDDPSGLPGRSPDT
Assay: Inhibition of C-terminal His-tagged human ARTD10 (809 to 1017 residues) expressed in Escherichia coli Rosetta2 (DE3) using SRPK2 as substrate after 13 hrs in presence of NAD+
Settings: read-out: IC50
pIC50: −log10 of the molar value.
QUANTITY NAME: pIC50

• NC(=O)c1ccc(OCc2ccccc2)cc1 = 5.85
• NC(=O)c1ccc(OCc2ccccc2Br)cc1 = 5.42
• NC(=O)c1ccc(OCc2ccccn2)cc1 = 5.87
• NC(=O)c1ccc(OCc2cccc(F)c2)cc1 = 5.48
• NC(=O)c1ccc(Oc2ccc(N)cc2)cc1 = 5.89
• NC(=O)c1ccc(Oc2ccccc2F)cc1 = 5.77
• NC(=O)c1ccc(COc2ccc(C(N)=O)cc2)cc1 = 5.70

From: ChEMBL document CHEMBL4270552
